System: UACC-62 melanoma
Protocol: NCI tumour cell line growth inhibition, 48 h
Metric name: log10 TGI (log10 of the value in µM)
A value of 2 here means TGI of 100 in µM, since values are log10.

Looking up CCC(=O)N1C/C(=C/c2ccc(OC)cc2)C(=O)/C(=C/c2ccc(OC)cc2)C1 , I see its log10 TGI listed as 0.48

Looking up O=C(/C=C/c1ccc([N+](=O)[O-])o1)NNC(=O)c1cc2ccccc2cc1O , I see its log10 TGI listed as 0.35

Looking up CCc1ccc(C2=C(O)C(=O)C(c3ccc(CC)cc3)=C(O)C2=O)cc1 , I see its log10 TGI listed as 0.56

Looking up c1ccc2c(c1)SC1Sc3ccccc3[S+]21 (configuration not stated) , I see its log10 TGI listed as 1.57

Looking up c1cc(-c2sc(-c3ccncc3)c(-c3ccncc3)c2-c2ccncc2)ccn1 , I see its log10 TGI listed as 1.44

Looking up COc1cc(C(C#N)NNC(=O)c2ccccc2O)ccc1O (configuration not stated) , I see its log10 TGI listed as 0.72

Looking up O=C(Nc1ccc(Br)cc1)c1cc(Br)cc(Br)c1O , I see its log10 TGI listed as 1.18

Looking up COc1ccc2nc3c([N+](=O)[O-])ccc4c3c(c2c1)NCCN4C , I see its log10 TGI listed as 0.46

Looking up COc1ccc2c(c1)CC[C@@H]1[C@@H]2CC[C@]2(C)/C(=N/OCCN3CCCCC3)CC[C@@H]12 , I see its log10 TGI listed as 0.57

Looking up Cc1ccc2c(c1)sc(-c1ccc(N(C)C)cc1)[n+]2C , I see its log10 TGI listed as 1.19
